B1: ESR2 (parent)
chain: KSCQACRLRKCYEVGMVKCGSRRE

variants of: B1; experiment: protein stability index of a GFP-peptide fusion (GPS, HEK-293T) (PSI 1-6); higher = more stable; details: c terminus: a fixed tail appended;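 further: lentivirally expressed fusions sorted by FACS into six bins by GFP to DsRed ratio, PSI derived from sequencing read proportions per bin multiplied by bin number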
measurementLabel: protein stability index
Please give only the number in your answer, with no unit.

Inquiry: Given the entry R23V , report its measured protein stability index.
Reply text: 2.41

Inquiry: Given the entry G15H , report its measured protein stability index.
Reply text: 1.86

Inquiry: Given the entry C6Q , report its measured protein stability index.
Reply text: 2.94

Inquiry: Given the entry E24C , report its measured protein stability index.
Reply text: 2.28

Inquiry: Given the entry M16W , report its measured protein stability index.
Reply text: 1.88

Inquiry: Given the entry V14A , report its measured protein stability index.
Reply text: 2.1

Inquiry: Given the entry S2I , report its measured protein stability index.
Reply text: 1.46

Inquiry: Given the entry C6L , report its measured protein stability index.
Reply text: 2.48

Inquiry: Given the entry Y12S , report its measured protein stability index.
Reply text: 2.29

Inquiry: Given the entry R22P , report its measured protein stability index.
Reply text: 2.33

Inquiry: Given the entry Q4E , report its measured protein stability index.
Reply text: 2.1

Inquiry: Given the entry R7M , report its measured protein stability index.
Reply text: 1.48

Inquiry: Given the entry R23E , report its measured protein stability index.
Reply text: 2.33

Inquiry: Given the entry V14C , report its measured protein stability index.
Reply text: 2.17

Inquiry: Given the entry C11E , report its measured protein stability index.
Reply text: 1.57

Inquiry: Given the entry V17L , report its measured protein stability index.
Reply text: 1.61

Inquiry: Given the entry E24I , report its measured protein stability index.
Reply text: 1.73

Inquiry: Given the entry C19Q , report its measured protein stability index.
Reply text: 1.53

Inquiry: Given the entry R9G , report its measured protein stability index.
Reply text: 1.95

Inquiry: Given the entry Q4S , report its measured protein stability index.
Reply text: 2.11

Inquiry: Given the entry R22Y , report its measured protein stability index.
Reply text: 1.66

Inquiry: Given the entry K10I , report its measured protein stability index.
Reply text: 1.98

Inquiry: Given the entry C11I , report its measured protein stability index.
Reply text: 2.19

Inquiry: Given the entry R23A , report its measured protein stability index.
Reply text: 1.61

Inquiry: Given the entry R7I , report its measured protein stability index.
Reply text: 1.64

Inquiry: Given the entry S21E , report its measured protein stability index.
Reply text: 2.25

Inquiry: Given the entry K10V , report its measured protein stability index.
Reply text: 1.89

Inquiry: Given the entry M16H , report its measured protein stability index.
Reply text: 2.82

Inquiry: Given the entry C3W , report its measured protein stability index.
Reply text: 1.85

Inquiry: Given the entry E13K , report its measured protein stability index.
Reply text: 1.99

Inquiry: Given the entry C3D , report its measured protein stability index.
Reply text: 2.69

Inquiry: Given the entry Y12L , report its measured protein stability index.
Reply text: 1.89

Inquiry: Given the entry R23H , report its measured protein stability index.
Reply text: 1.96

Inquiry: Given the entry K18C , report its measured protein stability index.
Reply text: 2.16

Inquiry: Given the entry C19G , report its measured protein stability index.
Reply text: 2.11

Inquiry: Given the entry C6R , report its measured protein stability index.
Reply text: 3.05

Inquiry: Given the entry E24P , report its measured protein stability index.
Reply text: 2.74

Inquiry: Given the entry L8Y , report its measured protein stability index.
Reply text: 2.35

Inquiry: Given the entry G20C , report its measured protein stability index.
Reply text: 1.95

Inquiry: Given the entry E13M , report its measured protein stability index.
Reply text: 1.7

Inquiry: Given the entry L8V , report its measured protein stability index.
Reply text: 1.73

Inquiry: Given the entry M16I , report its measured protein stability index.
Reply text: 1.13

Inquiry: Given the entry R9C , report its measured protein stability index.
Reply text: 1.61

Inquiry: Given the entry E24Q , report its measured protein stability index.
Reply text: 1.88

Inquiry: Given the entry C6F , report its measured protein stability index.
Reply text: 1.96

Inquiry: Given the entry K1Y , report its measured protein stability index.
Reply text: 1.45

Inquiry: Given the entry G15I , report its measured protein stability index.
Reply text: 1.79

Inquiry: Given the entry G15N , report its measured protein stability index.
Reply text: 1.97

Inquiry: Given the entry A5P , report its measured protein stability index.
Reply text: 2.3

Inquiry: Given the entry K18Y , report its measured protein stability index.
Reply text: 1.49

Inquiry: Given the entry V17T , report its measured protein stability index.
Reply text: 1.98
